- assay.method.text: Stability in rat liver microsomes
- Type: in vitro ADME
- test.settings: pH 7.4; rat liver microsomes; inferred in vivo intrinsic hepatic clearance rate
measurement.label: CLint scaled at 1.5 μM (mL/min/kg)
Could you give me the number in mL/min/kg? Just the number is fine.

CLint scaled at 1.5 μM recorded for this molecule, CCS(=O)(=O)c1ccc([C@H](CCO)NC(=O)c2ccc(N3C[C@@H](Oc4ccc(OC(F)(F)F)cc4)C[C@H]3CF)cc2)cc1 [Example 117] , is 3.8

For this molecule ( CCS(=O)(=O)c1ccc([C@H](CO)NC(=O)c2ccc(N3C[C@@H](Oc4ccc(C(F)(F)F)cc4)C[C@H]3COC(F)F)cc2)cc1 [Example 39] ), measured CLint scaled at 1.5 μM is 7.4

The reported CLint scaled at 1.5 μM of the molecule CCS(=O)(=O)c1ccc([C@H](CCO)NC(=O)c2ccc(N3C[C@@H](Oc4ccc(C(F)(F)F)cc4)C[C@H]3COC(F)F)cc2)cc1 [Example 91] was 38

# molecule CCS(=O)(=O)c1ccc([C@H](CCO)NC(=O)c2ccc(N3C[C@@H](Oc4ccc(OC(F)(F)F)cc4)C[C@H]3COC(F)F)cc2)cc1 [Example 119] ; its CLint scaled at 1.5 μM = 3.2
